Tested on: Escherichia coli TOP10;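 further: peptides expressed intracellularly from a pBAD plasmid library in pooled LB shake-flask culture, induced with 0.3% L-arabinose, DNA abundance read by NGS, three biological replicates, DESeq2 with apeglm shrinkage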
Assay Remarks: shrunken log2 fold change of peptide-encoding DNA abundance (4.5 h post-induction vs induction); higher = less antimicrobial activity (less host growth inhibition)
Experimental Parameters: time post-induction: 4.5 h; library: site-saturation at positions 5, 18, 19, 20
Measured Quantity: shrunken log2 fold change
Give the figure only, with no unit attached.

Observe how each entry below is paired with its result.
{"Biopolymer Sequence": "RRIRMRPPRLPRPRPRPMRIPRP", "Study Target": "Escherichia coli TOP10", "shrunken log2 fold change": 0.355}
{"Biopolymer Sequence": "RRIRIRPPRLPRPRPRPYRNPRP", "Study Target": "Escherichia coli TOP10", "shrunken log2 fold change": -0.0378}
{"Biopolymer Sequence": "RRIRQRPPRLPRPRPRPPVKPRP", "Study Target": "Escherichia coli TOP10", "shrunken log2 fold change": 0.0851}
{"Biopolymer Sequence": "RRIRVRPPRLPRPRPRPLQLPRP", "Study Target": "Escherichia coli TOP10", "shrunken log2 fold change": -0.091}
{"Biopolymer Sequence": "RRIRIRPPRLPRPRPRPDGAPRP", "Study Target": "Escherichia coli TOP10", "shrunken log2 fold change": -0.237}

INPUT: Please report the recorded shrunken log2 fold change for RRIRVRPPRLPRPRPRPFLTPRP .
OUTPUT: -0.0925

INPUT: Reported shrunken log2 fold change for RRIRYRPPRLPRPRPRPPHSPRP : what is it?
OUTPUT: -0.699
